Numbers sourced from patent US20230137032A1.

- experimental.system: T1, recombinant cyno BCMA, in house material (cyno, UniProt A0A2K5UD97 4-52)
- T1 construct: also called Cyno in house BCMA
- T1 sequence (A0A2K5UD97 entry or part of it): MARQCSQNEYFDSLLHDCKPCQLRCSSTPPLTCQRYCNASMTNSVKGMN
- protocol.notes: ProteOn SPR run 1, antibody captured on Protein A, 25C
outcome.measure: pKd
Friendly reminder that pKd comes from taking -log10 of the concentration in mol/L.

Record excerpt, results attached:
CA8 humanised J4M0 (antibody, human IgG1, kappa, V domains shown, Humanised CA8, heavy chain J4 with light chain M0, human IgG1 kappa; also called CA8 J4M0) VH: QVQLVQSGAEVKKPGSSVKVSCKGSGYTFTNYWMHWVRQAPGQGLEWIGATYRGHSDTYYNQKFKGRATLTADTSTSTAYMELSSLRSEDTAVYYCTRGAIYNGYDVLDNWGQGTLVTVSS VL: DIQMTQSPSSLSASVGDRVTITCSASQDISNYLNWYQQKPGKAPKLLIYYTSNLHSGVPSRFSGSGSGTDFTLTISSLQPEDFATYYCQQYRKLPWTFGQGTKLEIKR :: 9.06
CA8 humanised J1M1 (antibody, human IgG1, kappa, V domains shown, Humanised CA8, heavy chain J1 with light chain M1, human IgG1 kappa; also called CA8 J1M1) VH: QVQLVQSGAEVKKPGSSVKVSCKASGYTFTNYWMHWVRQAPGQGLEWMGATYRGHSDTYYNQKFKGRVTITADKSTSTAYMELSSLRSEDTAVYYCARGAIYNGYDVLDNWGQGTLVTVSS VL: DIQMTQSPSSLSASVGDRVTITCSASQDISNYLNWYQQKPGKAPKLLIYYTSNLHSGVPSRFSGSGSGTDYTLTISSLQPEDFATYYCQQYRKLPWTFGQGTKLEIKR :: 9.35
CA8 humanised J1M0 (antibody, human IgG1, kappa, V domains shown, Humanised CA8, heavy chain J1 with light chain M0, human IgG1 kappa; also called CA8 J1M0) VH: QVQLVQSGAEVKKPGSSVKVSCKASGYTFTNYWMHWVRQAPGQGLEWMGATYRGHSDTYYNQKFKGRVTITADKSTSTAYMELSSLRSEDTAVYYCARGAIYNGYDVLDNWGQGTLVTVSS VL: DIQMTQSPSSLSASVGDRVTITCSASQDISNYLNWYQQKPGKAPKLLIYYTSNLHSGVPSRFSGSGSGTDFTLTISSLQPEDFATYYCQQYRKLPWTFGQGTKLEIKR :: 9.07
CA8 humanised J2M1 (antibody, human IgG1, kappa, V domains shown, Humanised CA8, heavy chain J2 with light chain M1, human IgG1 kappa; also called CA8 J2M1) VH: QVQLVQSGAEVKKPGSSVKVSCKASGYTFTNYWMHWVRQAPGQGLEWMGATYRGHSDTYYNQKFKGRVTITADKSTSTAYMELSSLRSEDTAVYYCTRGAIYNGYDVLDNWGQGTLVTVSS VL: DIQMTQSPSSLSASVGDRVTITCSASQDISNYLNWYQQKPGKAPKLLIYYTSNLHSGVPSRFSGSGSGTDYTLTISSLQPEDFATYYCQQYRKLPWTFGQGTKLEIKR :: 9.66
CA8 humanised J5M0 (antibody, human IgG1, kappa, V domains shown, Humanised CA8, heavy chain J5 with light chain M0, human IgG1 kappa; also called CA8 J5M0) VH: QVQLVQSGAEVKKPGSSVKVSCKGSGYTFTNYWMHWVRQAPGQGLEWMGATYRGHSDTYYNQKFKGRVTITADTSTSTAYMELSSLRSEDTAVYYCTRGAIYDGYDVLDNWGQGTLVTVSS VL: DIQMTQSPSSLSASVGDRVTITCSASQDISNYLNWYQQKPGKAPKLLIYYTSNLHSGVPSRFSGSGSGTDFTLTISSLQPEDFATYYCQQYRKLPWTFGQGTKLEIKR :: 10.60

Task: Query: pKd; subject: CA8 humanised J4M2 (antibody, human IgG1, kappa, V domains shown, Humanised CA8, heavy chain J4 with light chain M2, human IgG1 kappa; also called CA8 J4M2) VH: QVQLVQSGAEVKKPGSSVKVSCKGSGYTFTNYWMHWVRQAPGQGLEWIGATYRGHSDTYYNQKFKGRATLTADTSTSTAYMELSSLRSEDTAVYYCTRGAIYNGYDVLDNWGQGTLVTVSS VL: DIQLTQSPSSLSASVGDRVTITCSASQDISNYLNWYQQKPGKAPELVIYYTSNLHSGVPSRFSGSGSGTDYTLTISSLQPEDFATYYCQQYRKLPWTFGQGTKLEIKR
Result: 9.75
